Each entry below lists one item and its recorded ratio IC50 hV2/hV1a value.
targetUnderTest: human V1a receptor (Homo sapiens (Human))
Sequence (P37288 whole entry): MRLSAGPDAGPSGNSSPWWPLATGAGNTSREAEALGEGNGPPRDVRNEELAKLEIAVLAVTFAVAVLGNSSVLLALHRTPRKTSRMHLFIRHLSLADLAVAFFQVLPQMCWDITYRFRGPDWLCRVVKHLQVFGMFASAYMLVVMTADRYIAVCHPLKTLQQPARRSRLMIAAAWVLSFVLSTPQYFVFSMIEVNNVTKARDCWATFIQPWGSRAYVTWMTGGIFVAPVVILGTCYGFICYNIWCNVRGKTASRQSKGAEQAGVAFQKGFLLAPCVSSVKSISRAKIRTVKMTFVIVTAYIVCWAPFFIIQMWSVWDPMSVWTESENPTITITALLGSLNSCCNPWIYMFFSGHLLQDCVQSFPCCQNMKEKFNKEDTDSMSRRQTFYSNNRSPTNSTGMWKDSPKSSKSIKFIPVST
protocolSummary: Cellular in vitro assay for determining vasopressin receptor activity (V1a, aequorin luminescence)
Assay type: cell-based
studyConditions: selectivity, IC50 hV2 divided by IC50 hV1a
Description: B-1. Cellular In Vitro Assay for Determining Vasopressin Receptor Activity The identification of agonists and antagonists of the V1a and V2 vasopressin receptors from humans, rats and dogs as well as the quantification of the activity of the compounds of the invention is carried out using recombinant cell lines. […] The bioluminescence of the cell lines is detected using a suitable luminometer [Milligan G, Marshall F, Rees S, Trends in Pharmacological Sciences 17, 235-237 (1996)]. […]
Write no unit; give the number alone.

Example cases with answers are listed next.
[in] So what's the measured ratio IC50 hV2/hV1a for this one? NC1(C(=O)NC(Cn2c(-c3ccc(Cl)cc3)nn(Cc3ncn(-c4ncccc4Cl)n3)c2=O)C(F)(F)F)CC1 (racemic)
[out] 8.8

[in] Query (compound): CC(C)(C)OC(=O)NC1(C(=O)NC(Cn2c(-c3ccc(Cl)cc3)nn(Cc3ncn(-c4ncccc4Cl)n3)c2=O)C(F)(F)F)CC1 (racemic) ; field requested: ratio IC50 hV2/hV1a
[out] 9.0

New cases:
[in] I'd like to know its ratio IC50 hV2/hV1a. The compound in question is O=C(NC(Cn1c(-c2ccc(Cl)cc2)nn(Cc2ncn(-c3ncccc3Cl)n2)c1=O)C(F)(F)F)C1NCC1(F)F (stereo not drawn)
[out] 54.4
